Taken from PubChem BioAssay (NCI).

Tested on: LOX IMVI melanoma
protocolSummary: NCI tumour cell line growth inhibition, 48 h; in the data active = GI50 below about 0.43 µM; inactive = the rest
Labels: active, inactive

{"compound": "Cc1nc2sc(C(=O)Nc3cccc(Cl)c3C)c(N)c2cc1C(O)c1ccccc1 (stereo not given)", "classLabel": "active"}
{"compound": "COc1ccccc1N1CCN(CC(O)Cn2c(=O)c3c(OC)nc(C)cc3c(=O)n2-c2ccccc2)CC1 (stereo not given)", "classLabel": "inactive"}
{"compound": "CCCCc1n(Cc2ccc3ccccc3n2)cc[n+]1Cc1ccc2ccccc2c1", "classLabel": "inactive"}
{"compound": "O=C1c2ccccc2-c2c1c1ccc3ccccc3c1n2-c1ccccc1", "classLabel": "inactive"}
{"compound": "Nc1n[nH]c2cc(F)c([C@@H]3Nc4c(F)cc5[nH]ncc5c4[C@H]4C5CCC(C5)[C@@H]34)cc12 (stereo not given in full)", "classLabel": "active"}
{"compound": "CCOC(=O)CC1C(CNC(=O)NC)OC(n2cnc3c(NC(=O)Nc4ccccc4)ncnc32)C1O[Si](C)(C)C(C)(C)C (stereo not given)", "classLabel": "inactive"}
{"compound": "C=CC(=O)N1CCC(CNc2ncnc(N)c2-c2ccc(Oc3ccccc3)cc2)CC1", "classLabel": "inactive"}
{"compound": "COC(=O)C(Br)(C(=O)OC)C(Br)C(Br)C(Br)c1ccccc1 (stereo not given)", "classLabel": "inactive"}
{"compound": "N#Cc1cc2c(=S)[nH]c(=S)[nH]c2nc1SCc1ccccc1", "classLabel": "inactive"}
{"compound": "COc1ccc2cn3c4ccc(O)cc4[nH]c(=O)c3c2c1", "classLabel": "active"}

* * *

Test system: K-562 leukemia
protocolSummary: NCI tumour cell line growth inhibition, 48 h
# TGI per entry

{"molecule": "COc1ccccc1NC(=O)C1=C(C)NC(C)=C(C(=O)Nc2ccccc2OC)C1c1ccc(C2C(C(=O)Nc3ccccc3OC)=C(C)NC(C)=C2C(=O)Nc2ccccc2OC)cc1", "TGI": "13.2 µM"}
{"molecule": "CC1=C(C(=O)NCc2ccccc2)C(c2ccc(N(C)C)cc2)C(C(=O)NCc2ccccc2)=C(C)N1", "TGI": "> 100 µM"}
{"molecule": "CCCCCCCCCc1cc(=O)c2c(O)cc(O)cc2o1", "TGI": "26 µM"}
{"molecule": "Cc1cc(O)cc(-c2nn(C)cc2-c2cc(N3CCOCC3)nc(-c3cccnc3)n2)c1", "TGI": "> 100 µM"}
{"molecule": "Cc1cc(=O)[nH]c(S(=O)(=O)NC(=O)Nc2cccc(Cl)c2)n1", "TGI": "> 100 µM"}
{"molecule": "C=CC(=O)N1CCC(CNc2ncnc(N)c2-c2ccc(Oc3ccccc3)cc2)CC1", "TGI": "> 100 µM"}
{"molecule": "O=S(C(c1ccccc1)=P(c1ccccc1)(c1ccccc1)c1ccccc1)c1ccc(Cl)cc1 (centres undefined)", "TGI": "> 100 µM"}
{"molecule": "O=C1NC(=O)C23C(=O)NC(=O)C12C1C=CC3CC1 (centres undefined)", "TGI": "> 10 µM"}
{"molecule": "O=c1c2cc(Br)ccc2n(C2OC(CO)C(O)C(O)C2O)c(=S)n1-c1ccccc1 (centres undefined)", "TGI": "> 100 µM"}

* * *

Tested on: COLO 205 colon
protocolSummary: NCI tumour cell line growth inhibition, 48 h
molecules and their reported TGI
endpoint: TGI

{"molecule": "CC(C)C(=O)CC(c1ccc(Br)cc1)N1N=C(C(C)C)CC1c1ccc(Br)cc1 (stereo unspecified)", "measuredTarget": "COLO 205 colon", "endpoint": "TGI", "result": "> 100 µM"}
{"molecule": "CN(C)c1ccc(C2=C([O-])c3cc(-[n+]4ccccc4)ccc3C2=O)cc1", "measuredTarget": "COLO 205 colon", "endpoint": "TGI", "result": "> 100 µM"}
{"molecule": "COc1ccc(C#CC2=C(Br)C(=O)OC2)cc1", "measuredTarget": "COLO 205 colon", "endpoint": "TGI", "result": "29.1 µM"}
{"molecule": "C[C@@]12[Se]c3ccccc3[C@]1(C)[Se]c1ccccc12", "measuredTarget": "COLO 205 colon", "endpoint": "TGI", "result": "> 100 µM"}
{"molecule": "O=C(c1nc2ccc(Cl)cc2[nH]c1=O)C(O)c1ccco1 (stereo unspecified)", "measuredTarget": "COLO 205 colon", "endpoint": "TGI", "result": "> 100 µM"}
{"molecule": "Clc1ccc2c(NCCNc3nc(N4CCCCC4)nc4ccccc34)ccnc2c1", "measuredTarget": "COLO 205 colon", "endpoint": "TGI", "result": "2.84 µM"}

* * *

Test system: TK-10 renal
protocolSummary: NCI tumour cell line growth inhibition, 48 h

{"compound": "COc1cc(-c2cn(-c3ccc(F)cc3)c(=O)[nH]2)cc(OC)c1OC", "measuredTarget": "TK-10 renal", "GI50": "> 100 µM"}
{"compound": "COc1ccc(/C=C\\c2cc(OC)c(OC)c(OC)c2)cc1N/C=C\\C(=O)c1c[nH]c2ccccc12", "measuredTarget": "TK-10 renal", "GI50": "40.2 µM"}
{"compound": "O=C(Oc1c(Cl)c(Cl)c(Cl)c(Cl)c1Cl)C1CCCN1C(=O)OCc1ccccc1 (stereo not given)", "measuredTarget": "TK-10 renal", "GI50": "3.13 µM"}
{"compound": "COC(=O)C[C@@H]1CC=CC(=O)/C1=C(O)/C=C/c1ccccc1", "measuredTarget": "TK-10 renal", "GI50": "0.916 µM"}
{"compound": "Fc1cccc(-c2nc(-c3c[nH]c4ncccc34)cs2)c1", "measuredTarget": "TK-10 renal", "GI50": "25.9 µM"}

* * *

Tested on: M14 melanoma
protocolSummary: NCI tumour cell line growth inhibition, 48 h; in the data active = GI50 below about 0.43 µM; inactive = the rest
Classes used: active, inactive

{"compound": "COc1ccccc1CNC(=O)/C=C/c1ccc(O)c(O)c1", "measuredTarget": "M14 melanoma", "classLabel": "inactive"}
{"compound": "CCN(CC)CCC(CNc1c(C)cnc2cc(Cl)ccc12)c1ccc(Cl)c(Cl)c1 (configuration not stated)", "measuredTarget": "M14 melanoma", "classLabel": "inactive"}
{"compound": "Fc1cccc(-c2nc(-c3c[nH]c4ncccc34)cs2)c1", "measuredTarget": "M14 melanoma", "classLabel": "inactive"}
{"compound": "COC(=O)C[C@@H]1CC=CC(=O)/C1=C(O)/C=C/c1ccccc1", "measuredTarget": "M14 melanoma", "classLabel": "inactive"}
{"compound": "CC(C)CCCC(C)[C@H]1CCC2C3CC=C4C[C@@H](OC(=O)CC(CC(=O)[O-])C(=O)[O-])CC[C@]4(C)C3CC[C@@]21C.N.N.[Pt+4] (some centres not stated)", "measuredTarget": "M14 melanoma", "classLabel": "inactive"}
{"compound": "C=C(C)[C@@H]1CC[C@]2(COC(=O)c3ccccc3C(=O)O)CC[C@]3(C)[C@H](CC[C@@H]4[C@@]5(C)CC[C@H](OC(=O)c6ccccc6C(=O)O)C(C)(C)[C@@H]5CC[C@]43C)[C@@H]12", "measuredTarget": "M14 melanoma", "classLabel": "inactive"}
{"compound": "Cc1cc(O)cc(-c2nn(C)cc2-c2cc(N3CCOCC3)nc(-c3cccnc3)n2)c1", "measuredTarget": "M14 melanoma", "classLabel": "inactive"}
{"compound": "O=C1Nc2cc(-c3ccc(O)cc3)ccc2/C1=C/c1ccc[nH]1", "measuredTarget": "M14 melanoma", "classLabel": "active"}
{"compound": "CCN1C(=O)N[C@H]2[C@@H]3NC(=O)c4ccc(Cl)n4[C@@H]3C[C@]21O", "measuredTarget": "M14 melanoma", "classLabel": "active"}
{"compound": "COc1ccc2cn3c4ccc(O)cc4[nH]c(=O)c3c2c1", "measuredTarget": "M14 melanoma", "classLabel": "active"}
{"compound": "N#Cc1cc2c(=S)[nH]c(=S)[nH]c2nc1SCc1ccccc1", "measuredTarget": "M14 melanoma", "classLabel": "inactive"}
{"compound": "C=CC(=O)N1CCC(CNc2ncnc(N)c2-c2ccc(Oc3ccccc3)cc2)CC1", "measuredTarget": "M14 melanoma", "classLabel": "inactive"}

* * *

Reported GI50 values for a set of compounds
System: K-562 leukemia
protocolSummary: NCI tumour cell line growth inhibition, 48 h

{"compound": "CCOC(=O)CC1C(CNC(=O)NC)OC(n2cnc3c(NC(=O)Nc4ccccc4)ncnc32)C1O[Si](C)(C)C(C)(C)C (stereo not given)", "measuredTarget": "K-562 leukemia", "GI50": "3.59 µM"}
{"compound": "Nc1n[nH]c2cc(F)c([C@@H]3Nc4c(F)cc5[nH]ncc5c4[C@H]4C5CCC(C5)[C@@H]34)cc12 (stereo not given in full)", "measuredTarget": "K-562 leukemia", "GI50": "0.11 µM"}
{"compound": "COc1ccc(OC)c(-c2nc3sc(C)cn3c2/C=C2\\C(=O)N(C)c3ccccc32)c1", "measuredTarget": "K-562 leukemia", "GI50": "5.98 µM"}
{"compound": "COc1cc2c3c(n(CCCN=[N+]=[N-])c(=O)c2cc1OC)-c1ccc(NC(C)=O)cc1C3=O", "measuredTarget": "K-562 leukemia", "GI50": "> 50 µM"}
{"compound": "COc1cc(NC(=O)c2cc3ccccc3cc2O)c(OC)cc1Cl", "measuredTarget": "K-562 leukemia", "GI50": "1.84 µM"}
{"compound": "O=C1Nc2cc(-c3ccc(O)cc3)ccc2/C1=C/c1ccc[nH]1", "measuredTarget": "K-562 leukemia", "GI50": "0.0335 µM"}
{"compound": "CC1=CC[C@@H]2C(=O)C=CC=C[C@H]12.[C-]#[O+].[C-]#[O+].[C-]#[O+].[Fe]", "measuredTarget": "K-562 leukemia", "GI50": "> 100 µM"}
{"compound": "O=CCC(O)C(O)C(O)CO (stereo not given)", "measuredTarget": "K-562 leukemia", "GI50": "> 100 µM"}
{"compound": "COc1ccc2c(ccc3oc([N+](=O)[O-])cc32)c1", "measuredTarget": "K-562 leukemia", "GI50": "0.0647 µM"}
{"compound": "N#Cc1cc2c(=S)[nH]c(=S)[nH]c2nc1SCc1ccccc1", "measuredTarget": "K-562 leukemia", "GI50": "36.9 µM"}
